These data points were gathered from patent US12473304B2.

Reported pIC50 by item:
- assay system: UniProt Q9UM07
- method: RFMS Human PAD4 Functional Assay 1
- condition: RFMS assay 1; 5 nM hPAD4, 250 μM BAEE substrate, 50 μM calcium, 37° C.
API: returns pIC50 as number; meaning -log10 of concentration in mol/L.

Examples from the recorded data:
[ask] Find the recorded pIC50 belonging to COc1cc(C(=O)N2CCC[C@@H](N)C2)cn2nc(-c3cc4ccc(-c5cccc(CNS(C)(=O)=O)c5)cc4n3CC3CC3)c(C)c12 [Example 235] and report it.
[reply] 6.60

[ask] Which measured pIC50 value corresponds to Cc1cc(-c2ccc3cc(-c4nn5cc(C(=O)N6CC7CCC6[C@@H]7N)cc(F)c5c4C)n(CC4CC4)c3n2)ccc1C(N)=O (stereo partly drawn) [Example 262] ?
[reply] 6.92

[ask] Returns the measured pIC50 for the input molecule. Input: COc1cc(C(=O)N2C[C@H](N)C[C@@H](F)C2)cn2nc(-c3cc4cccc(C5CCN(C(=O)C6CC(O)C6)CC5)c4n3CC3CC3)c(C)c12 (single isomer, unassigned) [Example 393]
[reply] 6.60

[ask] Bench note: what pIC50 did CNC(=O)c1ccc(-c2ccc3cc(-c4nn5cc(C(=O)N6CC7CCC6[C@@H]7N)ccc5c4C)n(CC4CC4)c3n2)cn1 (stereo partly drawn) [Example 307] show?
[reply] 7.15

[ask] Quick one: pIC50 of Cc1c(-c2cc3ccnc(OCCn4cnnc4)c3n2CC2CC2)nn2cc(C(=O)N3CCC[C@@H](N)C3)ccc12 [Example 609] ?
[reply] 7.40

Moving on to another molecule below.
[ask] // query pIC50 value for entry Cc1c(-c2cc3ccc(N4CCOCC4=O)nc3n2CC2CC2)nn2cc(C(=O)N3CC4CCC3[C@@H]4N)ccc12 (stereo partly drawn) [Example 319]
[reply] 7.30

###

- assay system: human PAD4 (hPAD4) (Homo sapiens (Human))
- method: RFMS Human PAD4 Functional Assay 1
- condition: RFMS assay 1; 5 nM hPAD4, 250 μM BAEE substrate, 50 μM calcium, 37° C.
Items are presented alongside their recorded pIC50.
A value of pIC50 is the negative decimal logarithm of a concentration given in moles per litre.

[ask] Find the recorded pIC50 belonging to COCC(=O)N1CCC(c2cccc3cc(-c4nn5cc(C(=O)N6CCC[C@@H](N)C6)cc(OC)c5c4C)n(CC4CC4)c23)CC1 [Example 401] and report it.
[reply] 7.70

[ask] // lookup pIC50 for Cc1c(-c2cc3cccc(OC[C@@H]4CCC(=O)N4)c3n2CC2CC2)nn2cc(C(=O)N3C[C@H](N)C[C@@H](F)C3)ccc12 [Example 585]
[reply] 7.15

[ask] Entry under review: CC(=O)N1CCC(c2cc(F)cc3cc(-c4nn5cc(C(=O)N6CCC[C@@H](N)C6)ccc5c4C)n(CC4CC4)c23)CC1 [Example 506] . Reported pIC50?
[reply] 7.15

[ask] Recorded pIC50 for Cc1c(-c2ccc3cc(-c4nn5cc(C(=O)N6CCC[C@@H](N)C6)ccc5c4C)n(CC4CC4)c3n2)cc(F)c2[nH]c(=O)ccc12 [Example 312] , please?
[reply] 7.22

[ask] Which pIC50 is listed for COC(=O)N(C)C1CCN(c2ccc3cc(-c4nn5cc(C(=O)N6CCC[C@@H](N)C6)ccc5c4C)n(CC4CC4)c3c2)CC1 [Example 358] ?
[reply] 6.38

Proceed to the following item.
[ask] Need pIC50, item Cc1c(-c2cc3ccc(-c4ccc(N5CCCC5=O)cc4)cc3n2CC2CC2)nn2cc(C(=O)N3CC4CCC3[C@@H]4N)ccc12 (stereo partly drawn) [Example 329]
[reply] 7.30

###

- assay system: human PAD4 (hPAD4) (Homo sapiens (Human), UniProt Q9UM07)
- Sequence (Q9UM07 whole entry): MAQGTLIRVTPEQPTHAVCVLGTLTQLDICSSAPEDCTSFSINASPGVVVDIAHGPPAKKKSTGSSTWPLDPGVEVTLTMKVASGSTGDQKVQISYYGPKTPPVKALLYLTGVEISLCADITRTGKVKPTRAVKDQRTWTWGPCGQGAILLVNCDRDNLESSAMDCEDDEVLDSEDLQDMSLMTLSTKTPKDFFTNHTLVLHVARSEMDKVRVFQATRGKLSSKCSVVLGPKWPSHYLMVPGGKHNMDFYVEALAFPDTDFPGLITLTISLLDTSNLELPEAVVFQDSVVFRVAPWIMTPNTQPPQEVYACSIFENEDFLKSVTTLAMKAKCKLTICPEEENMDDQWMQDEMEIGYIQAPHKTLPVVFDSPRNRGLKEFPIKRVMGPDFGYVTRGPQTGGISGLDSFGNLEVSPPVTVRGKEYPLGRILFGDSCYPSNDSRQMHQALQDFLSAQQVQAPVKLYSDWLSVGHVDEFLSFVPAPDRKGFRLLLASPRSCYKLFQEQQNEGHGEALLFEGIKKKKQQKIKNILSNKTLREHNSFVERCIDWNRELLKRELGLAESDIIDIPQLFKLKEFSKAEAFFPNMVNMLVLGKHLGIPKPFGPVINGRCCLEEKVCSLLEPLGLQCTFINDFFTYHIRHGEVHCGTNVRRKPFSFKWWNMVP
- method: RFMS Human PAD4 Functional Assay 1
- Type: biochemical
- condition: RFMS assay 1; 5 nM hPAD4, 250 μM BAEE substrate, 50 μM calcium, 37° C.
# pIC50 per record follows
API: returns pIC50 as number; meaning -log10 of concentration in mol/L.

[ask] What pIC50 value was documented for this compound, Cc1c(-c2cc3ccc(N4CCOCC4=O)nc3n2CC2CC2)nn2cc(C(=O)N3CC4CCC3[C@@H]4N)cc(F)c12 (stereo partly shown) ?
[reply] 7.30

[ask] // pIC50 lookup, key: `Cc1c(-c2cc3ccc(-c4cccc(CO)c4)cc3n2CC2CC2)nn2cc(C(=O)N3CCC[C@@H](N)C3)ccc12`
[reply] 6.33

[ask] I have this compound here, COc1nc(C(=O)N2CC3CCC2[C@@H]3N)cn2nc(-c3cc4cccnc4n3CC3CC3)c(C)c12 (stereo partly shown) , and I need its recorded pIC50.
[reply] 5.47

Pending compound:
[ask] Report pIC50 for `Cc1c(-c2cc3ccc(-c4ccn5c(C)nnc5c4)cc3n2CC2CC2)oc2cc(C(=O)N3C[C@H](N)C[C@@H](F)C3)ccc12` please.
[reply] 6.50

###

- assay system: human PAD4 (hPAD4) (Homo sapiens (Human), UniProt Q9UM07)
- method: RFMS Human PAD4 Functional Assay 1
- condition: RFMS assay 1; 5 nM hPAD4, 250 μM BAEE substrate, 50 μM calcium, 37° C.
property label: IC50 (nM)
Give the quantity in nM, number only.

Please review the entries below; each comes with its answer.
[ask] Reported IC50 for human PAD4 (hPAD4) (Homo sapiens (Human), UniProt Q9UM07), given `Cc1c(-c2cc3ccc(N4CC(N(C)S(C)(=O)=O)C4)cc3n2CC2CC2)nn2cc(C(=O)N3CCC[C@@H](N)C3)ccc12` ?
[reply] 870

[ask] Lab note: need IC50 for `Cc1c(-c2cc3ccc(-c4ccc5[nH]ncc5c4)nc3n2CC2CC2)nn2cc(C(=O)N3CCC[C@@H](N)C3)ccc12` on human PAD4 (hPAD4) (Homo sapiens (Human), UniProt Q9UM07), anyone have it?
[reply] 400

***
[ask] State its IC50 on human PAD4 (hPAD4) (Homo sapiens (Human), UniProt Q9UM07): `Cc1c(-c2cc3cccc(C4CN(C(=O)[C@H]5CC[C@H](O)CC5)C4)c3n2CC2CC2)nn2cc(C(=O)N3CCC[C@@H](N)C3)ccc12`
[reply] 30

[ask] Fill in the recorded IC50 for this molecule, with human PAD4 (hPAD4) (Homo sapiens (Human), UniProt Q9UM07) as test system: Cc1c(-c2cc3cccc(C4CCN(C(=O)C5CC(O)(C(F)(F)F)C5)CC4)c3n2CC2CC2)nn2cc(C(=O)N3CCC[C@@H](N)C3)cc(F)c12 (mixture of isomers)
[reply] 400

[ask] Provide value of IC50 for this record tested with human PAD4 (hPAD4) (Homo sapiens (Human), UniProt Q9UM07): `COc1cc(C(=O)N2C[C@H](N)C[C@@H](F)C2)cn2nc(-c3cc4ccc(-c5ccc6c(c5)C(=O)NC6)cc4n3CC3CC3)c(C)c12`
[reply] 1020

[ask] Which IC50 is reported with human PAD4 (hPAD4) (Homo sapiens (Human), UniProt Q9UM07) for this entry: COC1CCN(c2ccc3cc(-c4nn5cc(C(=O)N6CC7CCC6[C@@H]7N)ccc5c4C)n(CC4CC4)c3n2)CC1 (stereo partly drawn) ?
[reply] 96

###

- assay system: human PAD4 (hPAD4) (Homo sapiens (Human))
- method: RFMS Human PAD4 Functional Assay 1
- condition: RFMS assay 1; 5 nM hPAD4, 250 μM BAEE substrate, 50 μM calcium, 37° C.
- Procedure: RFMS Human PAD4 Functional Assay 1: Compounds were solubilized in 100% DMSO to achieve all) mM compound concentration. Compound stock solutions were stored at RT. A series of dilutions were prepared in DMSO and mixed 8 times with 20 μL mixing volume. Final top concentration of compound in the assay is 50 μM. […] MRM transition of product and internal standard were monitored at m/z 424.5 to 350.4 and m/z 293 to 247 respectively. […]
property label: pIC50
Please express pIC50 as -log10 of the molar concentration.

[ask] Data request, read-out pIC50, for `CO[C@H](C)C(=O)N1CCC(c2cc(F)cc3cc(-c4nn5cc(C(=O)N6C[C@H](N)C[C@@H](F)C6)ccc5c4C)n(CC4CC4)c23)CC1`
[reply] 7.15

Others:
[ask] For the compound Cc1c(-c2cc3ccc(C4CC4)nc3n2CC2CC2)nn2cc(C(=O)N3CC4CCC3[C@@H]4N)ccc12 (stereo partly drawn) , what pIC50 is on record?
[reply] 7.66

[ask] pIC50 lookup needed for COc1cc(C(=O)N2CCC[C@@H](N)C2)cn2nc(-c3cc4ccnc(OCC5CNC(=O)C5)c4n3CC3CC3)c(C)c12 (single isomer, unassigned; isomer 1) [Example 591] , thanks.
[reply] 7.52

[ask] // returns reported pIC50 for input COc1cc(C(=O)N2CC3CCC2[C@@H]3N)cn2nc(-c3cc4ccc(-c5ccccc5N5CCNC5=O)nc4n3CC3CC3)c(C)c12 (stereo partly drawn)
[reply] 7.22

[ask] I'd like to know its pIC50. The compound in question is COc1cc(C(=O)N2CC3CCC2[C@@H]3N)cc2sc(-c3cc4ccc(-c5ccc(O)c(F)c5)nc4n3CC3CC3)c(C)c12 (stereo partly drawn)
[reply] 6.15

[ask] Which pIC50 is listed for `COC(C)(C)C(=O)N1CC(c2cccc3cc(-c4nn5cc(C(=O)N6CCC[C@@H](N)C6)ccc5c4C)n(CC4CC4)c23)C1` ?
[reply] 5.60

[ask] Returns the measured pIC50 for the input compound. Input: COc1cc(C(=O)N2CC3CCC2[C@@H]3N)cn2nc(-c3cc4ccnc(OCC5CNC(=O)C5)c4n3CC3CC3)c(C)c12 (mixture of isomers) [Example 608]
[reply] 8.00

[ask] What does the record list as pIC50 for `CC(=O)N1CCC(c2cccc3cc(-c4nn5cc(C(=O)N6CCC[C@@H](N)C6)cc(F)c5c4C)n(CC4CC4)c23)CC1` ?
[reply] 7.52
